The measurements presented in this section are drawn from patent US20100099619A1.

Biological target: neuropeptide Y4 receptor
Sequence (P50391 whole entry): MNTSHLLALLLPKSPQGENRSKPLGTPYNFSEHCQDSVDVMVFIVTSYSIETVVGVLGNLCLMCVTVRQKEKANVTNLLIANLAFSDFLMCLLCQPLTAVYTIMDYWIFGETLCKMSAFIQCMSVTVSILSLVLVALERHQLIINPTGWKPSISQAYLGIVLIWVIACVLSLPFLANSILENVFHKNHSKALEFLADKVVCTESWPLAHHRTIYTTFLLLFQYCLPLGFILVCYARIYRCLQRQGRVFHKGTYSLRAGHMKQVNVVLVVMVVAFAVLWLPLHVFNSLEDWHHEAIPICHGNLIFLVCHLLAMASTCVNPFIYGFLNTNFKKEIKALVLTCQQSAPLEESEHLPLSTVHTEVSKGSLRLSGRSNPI
Experiment: radioligand competition, [125I]-hPP, Y4/CHO-K1 membranes
Y4 RBA strictly less than 80 nM = criterion met. Otherwise criterion not met.

BINDER: YAIKPEAPGEDASPEELAQYAADLRRYINMLTRQRY (modifications not checked) [SEQ ID NO 318]
LABEL VALUE: criterion not met
//
BINDER: ASLRHYLNLVTRQRY (modifications not checked) [SEQ ID NO 203]
LABEL VALUE: criterion not met
//
BINDER: APLEPVYPGDNATPEQMNKYYASLRHYLNLVTRQRY (modifications not checked) [SEQ ID NO 293]
LABEL VALUE: criterion met
//
BINDER: YPIKPEAPGEDASPEELNQYAADLRRYINMLTRQRY (modifications not checked) [SEQ ID NO 316]
LABEL VALUE: criterion met
//
BINDER: APLEPVYPGDNATPEQMNKYYASLRHYLNLVTRQRY (modifications not checked) [SEQ ID NO 306]
LABEL VALUE: criterion met
//
BINDER: YPIKPEAPGEDASPDELAQYAADLRRYINMLTRQRY (modifications not checked) [SEQ ID NO 342]
LABEL VALUE: criterion not met
